Origin of values: PubChem BioAssay (NCATS)

# assay_summary: qHTS Assay for Lipid Storage Modulators (AID 1519)
# protocol_conditions: Drosophila S3 cells, BODIPY lipid droplet/cell ratio, laser cytometry; measured here: cell count channel max response; cells loaded with oleic acid
Results filed as inconclusive are left out.
reported_property: max response

// below: answered molecules
INSERT INTO measurements (molecule, reported_property, endpoint_value) VALUES
  ('CC(=O)[C@@H]1CC[C@H]2[C@H]3CC[C@H]4C[C@@H](O)CC[C@]4(C)[C@@H]3C(=O)C[C@@]12C', 'max response', '-12.1%'),
  ('CN1Cc2c(ccc3c2OCO3)[C@@H]2[C@@H](O)Cc3cc4c(cc3[C@@H]21)OCO4', 'max response', '0.16%'),
  ('COc1cc2c(c(OC)c1OC)-c1ccc(O)c(=O)cc1C(NC(C)=O)CC2 (centres undefined)', 'max response', '16.6%');

Challenge: Give me measured max response, please, for this molecule: `O=C(Oc1ccccc1)N1CCC2(CCN(Cc3ccccc3)CC2)CC1`
Response given: 2.36%

* * *

# assay_summary: Primary qHTS to identify inhibitors of SARS-CoV-2 cell entry (AID 1645846); further: nearly all actives have a fitted effect of over 45% in size
# protocol_conditions: SARS-CoV-2 pseudovirus cell entry assay, luminescence; at 57.1 µM (top of the series) unless noted
Results filed as inconclusive are left out.
reported_property: activity change, negative = inhibition (% [at 11.3 µM])
Your answer should be a plain number; it is taken to be in % [at 11.3 µM].

INSERT INTO results (smiles_structure, endpoint_value) VALUES
  ('COc1cc2c(cc1O)CCN[C@]21CS[C@@H]2c3c(OC(C)=O)c(C)c4c(c3[C@H](COC1=O)N1[C@@H]2[C@H]2c3c(cc(C)c(OC)c3O)C[C@@H]([C@@H]1O)N2C)OCO4', -92.8);

Challenge: Give recorded activity change, negative = inhibition. `COCCNc1cc(NC(=O)N2CCCc3cc(CN4CCN(C)CC4=O)c(C=O)nc32)ncc1C#N`
Response given: -9.55

* * *

# target_of_assay: Rap guanine nucleotide exchange factor 3 (Homo sapiens)
# assay_summary: Counterscreen qHTS for antagonist of cAMP-regulated guanine nucleotide exchange factor 3 (EPAC1) (AID 1645888);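 further: fluorescence loss as bound BODIPY-GDP is released from Rap1B; % of control where 0% means no effect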
# protocol_conditions: Rap1B-BODIPY-GDP nucleotide exchange, fluorescence; series mostly up to 154 µM
Results filed as inconclusive are left out. Active and inactive are the calls of the source. The call rests on the fitted dose curve; in most records, active means well fitted inhibition curve with a large enough effect; inconclusive means small, poorly fitted or top-dose-only effect; inactive means no such curve, though single readings can be large or run the other way.
reported_property: activity change, negative = inhibition

Consider the worked cases shown below.
INSERT INTO assay_data (compound, target_of_assay, endpoint_value) VALUES
  ('Cc1ccc(N2C(=O)NC(=O)/C(=C\C=C\c3ccco3)C2=O)cc1C', 'Rap guanine nucleotide exchange factor 3 (Homo sapiens)', 'inactive'),
  ('CC[C@@H]1c2ccccc2[C@@H]2CC[C@H]1N2c1ccccc1', 'Rap guanine nucleotide exchange factor 3 (Homo sapiens)', '-4.57% [at 30.8 µM] (inactive)'),
  ('COc1ccc(C2C=C(C)Oc3c2c(=O)oc2ccccc32)cc1OC (stereo not given)', 'Rap guanine nucleotide exchange factor 3 (Homo sapiens)', 'inactive'),
  ('CCCNC1=C(C)C(=O)C2=C(C1=O)C(COC(N)=O)[C@]1(OC)C3NC3CN21 (stereo not given in full)', 'Rap guanine nucleotide exchange factor 3 (Homo sapiens)', 'inactive'),
  ('Nc1c(C(=O)NCc2ccco2)c2nc3ccccc3nc2n1Cc1ccc(F)cc1', 'Rap guanine nucleotide exchange factor 3 (Homo sapiens)', 'inactive'),
  ('Cc1cc(=O)oc2cc(OCC(=O)N3CCC(C(=O)O)(c4ccccc4)CC3)ccc12', 'Rap guanine nucleotide exchange factor 3 (Homo sapiens)', 'inactive'),
  ('COCCNC(=O)c1c(N)n(CCC(C)C)c2nc3ccccc3nc12', 'Rap guanine nucleotide exchange factor 3 (Homo sapiens)', '-2.48% [at 30.8 µM] (inactive)'),
  ('CCCOC(=O)c1ccccc1C(=O)OCCC', 'Rap guanine nucleotide exchange factor 3 (Homo sapiens)', '-2.66% [at 30.8 µM] (inactive)'),
  ('Nc1ccc2nonc2c1[N+](=O)[O-]', 'Rap guanine nucleotide exchange factor 3 (Homo sapiens)', 'inactive'),
  ('N/C(=N\N=C/c1ccc(-c2ccc(O)c(C(=O)O)c2)o1)N[N+](=O)[O-]', 'Rap guanine nucleotide exchange factor 3 (Homo sapiens)', 'inactive');

Challenge: Consider the compound `CN1/C(=C\C=C2C(=O)NC(=S)NC2=O)C(C)(C)c2ccccc21` and give its recorded activity change, negative = inhibition.
Response given: inactive

Challenge: Please give measured activity change, negative = inhibition of the following entry: `CCOC(=O)c1cc(CC)sc1/N=C/C1C(=O)NC(=S)NC1=O`
Response given: -8.68% [at 30.8 µM] (inactive)

Challenge: Output measured activity change, negative = inhibition for this item: `CCOC(=O)[C@]12Cc3ccc(C)cc3[C@H]1N(C1CCCCC1)C(=O)c1cc(OC)ccc12`
Response given: inactive

Challenge: // Input: `Cc1ccc(-n2c(O)c(C=NCc3ccco3)c(=O)[nH]c2=S)cc1C` . Output its activity change, negative = inhibition only.
Response given: inactive

Challenge: Write down activity change, negative = inhibition measured for item `CCOC(=O)[C@]12Cc3cc(OC)ccc3[C@H]1N(C1CCCCC1)C(=O)c1ccccc12`
Response given: inactive

* * *

# assay_summary: qHTS assay for small molecule disruptors of the mitochondrial membrane potential - 5 hr assay (AID 651755); further: nearly all actives have a fitted effect of over 40% in size
# protocol_conditions: JC-1-type ratio dye; series mostly up to 92.2 µM
Records with an inconclusive call do not appear. Active and inactive are the calls of the source. The call rests on the fitted dose curve.
Answer with one of the outcomes given here: active, inactive

Challenge: Could you please tell me the result logged for `CCCCCCCCCc1ccc(O)cc1` in this assay?
Response given: active

Challenge: What classification did `CCCC(=O)Cl` end up with in this test?
Response given: inactive

Challenge: So what was the verdict on `CCOCN(C(=O)CCl)c1c(C)cccc1CC` in this test?
Response given: inactive

* * *

# target_of_assay: Cytochrome P450 2C19 (Homo sapiens) (UniProt P33261)
# Sequence (P33261 whole entry, looked up): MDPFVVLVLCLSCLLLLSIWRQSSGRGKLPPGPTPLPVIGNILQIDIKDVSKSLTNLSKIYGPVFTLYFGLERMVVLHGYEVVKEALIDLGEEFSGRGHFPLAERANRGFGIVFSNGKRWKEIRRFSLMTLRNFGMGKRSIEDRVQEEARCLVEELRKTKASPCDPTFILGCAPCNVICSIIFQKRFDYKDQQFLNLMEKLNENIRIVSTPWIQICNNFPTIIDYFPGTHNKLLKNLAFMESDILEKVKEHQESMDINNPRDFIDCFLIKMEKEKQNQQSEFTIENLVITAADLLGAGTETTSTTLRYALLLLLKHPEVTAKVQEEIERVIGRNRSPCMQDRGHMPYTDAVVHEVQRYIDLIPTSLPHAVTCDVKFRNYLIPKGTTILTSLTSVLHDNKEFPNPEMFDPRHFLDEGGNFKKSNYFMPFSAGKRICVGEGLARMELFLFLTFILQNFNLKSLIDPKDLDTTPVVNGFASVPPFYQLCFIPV
# assay_summary: qHTS Assay for Inhibitors and Substrates of Cytochrome P450 2C19 (AID 899); further: nearly all actives have a fitted effect of over 60% in size
# protocol_conditions: recombinant CYP2C19, luciferin-H EGE luminescence; series mostly up to 57.1 µM
Records with an inconclusive call do not appear. Calls of active or inactive are those of the source. The call rests on the fitted dose curve; in most records, active means well fitted inhibition curve with a large enough effect; inconclusive means small, poorly fitted or top-dose-only effect; inactive means no such curve, though single readings can be large or run the other way.
A correct response names exactly one class from active, inactive

INSERT INTO results (smiles_structure, label_class) VALUES
  ('Cc1nc2cnc(N3CCNCC3)nc2n(C)c1=O', 'inactive'),
  ('c1ccc(CN2CCC3(CCNCC3)CC2)cc1', 'active'),
  ('c1cncc([C@H]2CCCCN2)c1', 'active'),
  ('COc1ccc2c(c1OC)CN1CCc3cc4c(cc3[C@H]1C2)OCO4', 'active'),
  ('CCC[C@@](C)(COC(N)=O)COC(=O)NC(C)C', 'inactive'),
  ('CN1CC[C@]2(C)c3cc(O)ccc3N(C)[C@@H]12', 'active');

Challenge: Any idea what this test logged for `COc1ccc2c(c1O)-c1c(OC)c(OC)cc3c1[C@H](C2)N(C)CC3` ?
Response given: inactive

Challenge: What did the test return for `C=C1C/C(=C\C)C(=O)O[C@@H]2CCN3CC=C(COC(=O)[C@@]1(C)O)[C@H]23` ?
Response given: inactive

* * *

# assay_summary: Primary qHTS for inhibitors of nuclear receptor binding SET domain protein 2 (NSD2) in an isogenic RCH-ACV NSD2 p.E1099K mutant (9B) (AID 1645876); further: nearly all actives have a fitted effect of over 70% in size
# protocol_conditions: RCH-ACV (leukaemia line) NSD2 E1099K (9B) viability, CellTiter-Glo, 72 h; series mostly up to 44.9 µM
Inconclusive results are not listed. The source made the active and inactive calls. Calls come from the whole dose curve; as a rule, active = well fitted inhibition curve with a large enough effect; inconclusive = small, poorly fitted or top-dose-only effect; inactive = flat fitted curve, though single readings scatter.
I would appreciate it if you answered using one of these outcomes: yes = active, no = inactive

Some entries whose results are on file:
INSERT INTO assay_data (molecule, label_class) VALUES
  ('COC(=O)[C@@]12OC[C@]34[C@H]([C@@H](O)[C@@H]1O)[C@@]1(C)CC(=O)C(O)=C(C)[C@@H]1C[C@H]3OC(=O)[C@H](OC(=O)/C=C(\C)C(C)C)[C@@H]24', 'yes'),
  ('O=C(O)CNC(=O)C1C(=O)N(C2CCCCC2)C(=O)N(C2CCCCC2)C1=O', 'no'),
  ('C[C@@H]1CC[C@@]2(OC1)O[C@H]1C[C@H]3[C@@H]4CC=C5C[C@@H](O[C@@H]6O[C@H](CO)[C@@H](O[C@@H]7O[C@@H](C)[C@H](O)[C@@H](O)[C@H]7O)[C@H](O)[C@H]6O[C@@H]6O[C@@H](C)[C@H](O)[C@@H](O)[C@H]6O)CC[C@]5(C)[C@H]4CC[C@]3(C)[C@H]1[C@@H]2C', 'yes'),
  ('COC(=O)[C@]12CCC(C)(C)C[C@@H]1[C@@H]1C(=O)C=C3[C@]4(C)C=C(C#N)C(=O)C(C)(C)[C@@H]4CC[C@@]3(C)[C@]1(C)CC2', 'yes');

Now turn to the next molecule.
Challenge: Called result for `COC[C@@H]1OC(=O)c2coc3c2[C@]1(C)C1=C(C3=O)[C@H]2CC[C@H](O)[C@@]2(C)C[C@@H]1OC(C)=O`
Response given: yes
